Species on record: Cavia porcellus
method: Compound was measured for open epicutaneous test on sensitized guinea pig after sensitization of compound (3-Methylene-1-oxa-spiro[4.5]decan-2-one) average skin reaction.
Format: functional
quantity_kind: Average skin reaction
Reply with the value as a number alone.

Any idea what its Average skin reaction is? The compound is C=C1C(=O)OC2(CCCCC2)[C@@H]1O
0.4

Any idea what its Average skin reaction is? The compound is C=C1CC2(CCCCC2)OC1=O
1.2

Any idea what its Average skin reaction is? The compound is C=C1C(=O)OC2(CCCCC2)[C@@H]1OC(C)=O
1.7

Any idea what its Average skin reaction is? The compound is C=C1CCOC1=O
0

Any idea what its Average skin reaction is? The compound is C=C1C(=O)OC[C@@H]1OC(C)=O
0
